Molecular target: monoacylglycerol lipase (MAGL) (Macaca fascicularis)
Sequence (A0A2K5V664 1-352): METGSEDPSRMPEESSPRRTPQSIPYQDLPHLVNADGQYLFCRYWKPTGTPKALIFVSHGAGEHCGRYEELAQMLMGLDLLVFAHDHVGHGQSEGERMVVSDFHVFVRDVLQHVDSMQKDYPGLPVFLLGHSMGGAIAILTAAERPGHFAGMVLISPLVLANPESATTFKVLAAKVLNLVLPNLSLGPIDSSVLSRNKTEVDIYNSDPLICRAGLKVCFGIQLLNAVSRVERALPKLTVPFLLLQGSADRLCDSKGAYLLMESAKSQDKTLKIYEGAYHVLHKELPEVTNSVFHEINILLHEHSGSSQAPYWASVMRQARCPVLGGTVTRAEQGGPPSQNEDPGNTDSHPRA
recordedMetric: IC50 (nM)
Numbers only here, please. The scale is nM.

Data request: Please supply the value of reported IC50 for the item Cc1cccc(-c2ccc(N3C[C@H](N4CCN(C(=O)c5ccco5)CC4)CC3=O)cc2)c1 [(R)-YH168]
Data returned: 2.7
